Tested on: Staphylococcus aureus
procedureDetails: Antimicrobial activity against linezolid-resistant Staphylococcus aureus isolate 004-737X expressing cfr and ermA gene isolated from paraplegic patient by broth microdilution method
Assay type: functional
Listed molecules paired with reported MIC
observable: MIC

[[record]]
givensmiles = "CC[C@H]1OC(=O)[C@H](C)[C@@H](O[C@H]2C[C@@](C)(OC)[C@@H](O)[C@H](C)O2)[C@H](C)[C@@H](O[C@@H]2O[C@H](C)C[C@H](N(C)C)[C@H]2O)[C@](C)(O)C[C@@H](C)C(=O)[C@H](C)[C@@H](O)[C@]1(C)O"
readoutvalue = "> 256 µg/mL"

[[record]]
givensmiles = "Cc1onc(-c2ccccc2)c1C(=O)N[C@@H]1C(=O)N2[C@@H]1SC(C)(C)[C@@H]2C(=O)O"
readoutvalue = "> 2 µg/mL"

[[record]]
givensmiles = "CCC[C@@H]1C[C@@H](C(=O)N[C@@H]([C@H]2O[C@H](SC)[C@H](O)[C@@H](O)[C@H]2O)[C@H](C)Cl)N(C)C1"
readoutvalue = "> 256 µg/mL"

